# TARGET SYSTEM: T1, human EGFRvIII-hFc protein (human, UniProt P00533 25-645)
# T1 construct: extracellular domain; made in HEK293 cells, purified on protein A; also called immunogen A; hFc-tagged EGFRvIII protein; not shown: human IgG Fc fragment (hFc) of the pCpC vector
# PROCEDURE TEXT: ELISA, coated EGFRvIII-hFc, antibody 1 nM
I'd appreciate it if you could supply OD450 nm values for the items below.

Murine anti-7E5 (antibody, V domains shown, murine hybridoma antibody; also called 7E5-2A9; murine anti-7E5-2) VH: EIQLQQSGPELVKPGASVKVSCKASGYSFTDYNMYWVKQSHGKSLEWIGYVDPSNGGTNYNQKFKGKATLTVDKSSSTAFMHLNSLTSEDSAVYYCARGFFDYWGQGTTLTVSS VL: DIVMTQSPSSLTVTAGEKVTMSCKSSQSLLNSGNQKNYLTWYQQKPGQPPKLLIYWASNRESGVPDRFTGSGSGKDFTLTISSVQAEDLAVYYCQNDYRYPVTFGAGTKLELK: 3.18

Alright, here's another binder for you.
Lab book: OD450 nm of Murine anti-46C4 (antibody, V domains shown, murine hybridoma antibody; also called 46C4A6) VH: EVHLQQSVAELVRPGASVKLSCTASGFNIKNTYMHWVKQRPEQGLEWIGRIDPANGNTKYAPKFQGKATITADTSSNTAYLQLSSLTSEDTAIYYCASDFDYWGQGTTLTVSS VL: DVLMTQTPLSLPVSLGDQVSISCRSSQSIVNSNGNTHLEWYLQKPGQSPKVLIYKVSKRFSGVPDRFSGSGSGTDFTLKISRVEAEDLGVYYCFQGSHVPYTFGGGTKLEIK noted as 3.5
